This listing pairs molecules with measured pIC50.
# assayed_system: human P2X3 receptor (Homo sapiens)
# Construct: expressed in transfected cells; host or cells: CHO-K1
# Sequence (P56373 whole entry): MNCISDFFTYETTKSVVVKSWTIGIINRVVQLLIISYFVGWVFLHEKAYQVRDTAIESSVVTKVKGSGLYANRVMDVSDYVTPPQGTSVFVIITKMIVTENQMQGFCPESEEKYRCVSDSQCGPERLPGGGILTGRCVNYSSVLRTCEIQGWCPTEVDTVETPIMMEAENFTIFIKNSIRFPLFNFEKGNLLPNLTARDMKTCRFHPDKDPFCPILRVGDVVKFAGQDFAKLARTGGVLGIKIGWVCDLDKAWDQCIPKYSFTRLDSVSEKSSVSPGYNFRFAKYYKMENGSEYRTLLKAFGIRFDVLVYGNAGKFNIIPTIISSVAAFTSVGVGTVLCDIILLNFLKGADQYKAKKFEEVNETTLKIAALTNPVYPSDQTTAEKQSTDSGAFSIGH
# assay: Calcium luminescence (photoprotein) assay in CHO-K1 cells co-expressing human P2X3 receptor, α,β-Met-ATP stimulation, FLEXSTATION readout
# Format: cell-based
# experimental_conditions: Table 6; human P2X3 receptor antagonist activity, CHO-K1 cells, α,β-Met-ATP; read-out: h-P2X3 IC50
pIC50: −log10 of the molar value.
measured_metric: pIC50

1. O=C1N2CC(c3ccccc3)N=C2c2ncc(N3CCOCC3)cc2N1Cc1ccc(Cl)cc1 (stereo not shown): 6.61
2. COc1cc(CN2C(=O)N3C(=NCC3C3CCCCC3)c3ncc(N4CCOCC4)cc32)cc(OC)c1 (stereo not shown): 6.31
3. COc1ccc(CN2C(=O)N3C(=NCC3C3CCCCC3)c3ncc(N4CCOCC4)cc32)cc1 (stereo not shown): 6.29
4. CC(C)C1CN2C(=O)N(Cc3ccc(Cl)cc3)c3cc(N4CCC(O)CC4)cnc3C2=N1 (stereo not shown): 6.14
